Every entry's value here was drawn from patent US6329378A.

- System: A. Nidulans
What log10(MIC) was measured for each of the following?
Remember, log10 of MIC, in µg/mL.

A selection of reference data follows.
[[record]]
compound_structure_string = "COC(=O)c1ccc(COc2ccc(/C=N/NC(=S)Nc3cccc(C(F)(F)F)c3)c(O)c2)cc1"
recorded_number = -0.60

[[record]]
compound_structure_string = "Oc1cc(N2CCOCC2)ccc1/C=N/NC(=S)Nc1cccc(C(F)(F)F)c1"
recorded_number = -0.30

[[record]]
compound_structure_string = "COc1nccnc1NN=Cc1cccc(O)c1O"
recorded_number = 0.00

[[record]]
compound_structure_string = "COc1nccnc1NN=Cc1cc(Cl)ccc1O"
recorded_number = 0.30


Hello, I would appreciate it if you could give log10(MIC) for each entry below.
1. COc1ccccc1NN=Cc1cc(C(=O)O)ccc1O
2. COc1cc(O)c(C=NNc2nccnc2OC)c(OC)c1
3. COc1ccc(C=NNc2nccnc2OC)c(O)c1
4. COc1nccnc1NN=Cc1ccc(O)cc1O
5. O=C(O)c1ccc(O)c(C=NNc2cccc(Cl)c2)c1
6. FC(F)(F)c1cc(NC(=S)N/N=C/c2ccccn2)cc(C(F)(F)F)c1

Resp:
1. -0.60
2. 0.30
3. 0.60
4. 0.30
5. -0.30
6. 0.00

---

Assay read-out MIC; system under study: A. Nidulans.
One number for each entry, in µg/mL.

[[record]]
molecule = "O=C(O)c1ccc(O)c(C=NNc2ccccc2OC(F)(F)F)c1 [(21)]"
recorded_number = 1

[[record]]
molecule = "COc1nccnc1N/N=C/c1cc(Cl)cc(Cl)c1O [(1)]"
recorded_number = 2

[[record]]
molecule = "O=C(O)c1ccc(O)c(C=NNc2cccc([N+](=O)[O-])c2)c1 [(20)]"
recorded_number = 2

[[record]]
molecule = "CCN(CC)c1ccc(/C=N/NC(=S)Nc2cccc(C(F)(F)F)c2)c(O)c1 [(48)]"
recorded_number = 0.5

[[record]]
molecule = "Oc1cc(OCc2ccccc2)ccc1/C=N/NC(=S)Nc1ccc(Cl)cc1 [(45)]"
recorded_number = 0.5


Could you report MIC for every entry in the following list?
1. COc1nccnc1NN=Cc1cccc([N+](=O)[O-])c1O [(12)]
2. O=C(O)c1ccc(O)c(C=NNc2ccccc2)c1 [(18)]
3. Fc1ccc(NC(=S)N/N=C/c2ccccn2)cc1 [(39)]
4. COc1nccnc1N/N=C/c1ccccn1 [(10)]

Resp:
1. 8
2. 0.125
3. 4
4. 2

---

Values of MIC reported for A. Nidulans appear below.
Numbers only, in µg/mL.

# annotated cases, reported MIC shown
[[record]]
compound = "CCOc1cccc(C=NNc2nccnc2OC)c1O [(11)]"
target_or_system = "A. Nidulans"
recorded_number = 2

[[record]]
compound = "O=C(O)c1ccc(O)c(C=NNc2ccccc2Cl)c1 [(26)]"
target_or_system = "A. Nidulans"
recorded_number = 0.5


Hey, quick one: what's MIC for each of these?
1. COc1ccc(Br)c(C=NNc2nccnc2OC)c1O [(15)]
2. O=C(O)c1ccc(O)c(C=NNc2cccc(F)c2)c1 [(23)]
3. O=C(O)c1ccc(O)c(C=NNc2ccccc2F)c1 [(24)]
4. Oc1ccccc1C=NNc1ccccc1 [(19), 2-hydroxybenzaldehyde-N-phenyl hydrazone]

Resp:
1. 8
2. 0.125
3. 0.063
4. 0.125

---

Below are MIC values recorded for A. Nidulans.
Answers are plain numbers, in µg/mL.

State recorded MIC for all listed compounds.
1. Cc1c(Cl)cccc1NN=Cc1cc(C(=O)O)ccc1O
2. COc1cc(Br)cc(C=NNc2nccnc2OC)c1O
3. O=C(O)c1ccc(O)c(C=NNc2ccccc2Br)c1

Resp:
1. 1
2. 1
3. 1

---

- Test system: S. serevisiae
Mark rule met for MIC under 1 µg/mL, rule not met if at or over.

Completed entries (count: 5):
[[record]]
compound_structure_string = "O=C(O)c1ccc(O)c(C=NNc2ccccc2F)c1"
group_label = "rule met"

[[record]]
compound_structure_string = "COc1nccnc1N/N=C/c1ccc(O)c(O)c1O"
group_label = "rule not met"

[[record]]
compound_structure_string = "Fc1ccc(NC(=S)N/N=C/c2ccccn2)cc1"
group_label = "rule not met"

[[record]]
compound_structure_string = "S=C(N/N=C/c1ccccn1)Nc1ccccc1"
group_label = "rule not met"

[[record]]
compound_structure_string = "COc1nccnc1N/N=C/c1ccc2ccccc2n1"
group_label = "rule not met"


Req: Just wondering, is MIC of O=C(O)c1ccc(O)c(C=NNc2ccccc2C(=O)O)c1 below 1 µg/mL?
Resp: rule not met

Req: Check if MIC falls below 1 µg/mL for COc1ccc(C=NNc2nccnc2OC)c(O)c1 .
Resp: rule met

Req: Is 1 µg/mL strictly greater than the molecule's reported MIC? molecule: O=C(O)c1ccc(O)c(C=NNc2cccc([N+](=O)[O-])c2)c1
Resp: rule not met
